- Assay overview: logP by HPLC-MS (HCOOH or neutral)
- Assay conditions: HCOOH (formic acid), logP (HCOOH), HPLC-MS, HCOOH
Reported chromatographic logP values follow for various compounds
Lab note: write the figure by itself, no unit.

Structure as smiles: FC(F)(F)c1cccc(-c2cnc(-c3cnsc3)s2)n1
Numeric readout: 3.13
--
Structure as smiles: c1cnc(-c2cccc(-c3cnn(-c4cnccn4)c3)n2)nc1
Numeric readout: 1.65
--
Structure as smiles: CS(=O)(=O)NC(=O)c1cccc(-c2cnc(-c3ccnnc3)s2)n1
Numeric readout: 1.36
--
Structure as smiles: CS(=O)(=O)NC(=O)c1cccc(-c2cnc(-c3cnsc3)s2)n1
Numeric readout: 1.9
--
Structure as smiles: c1cnc(-c2cccc(-c3cnc(-c4cncs4)s3)n2)nc1
Numeric readout: 1.76
--
Structure as smiles: c1cnc(-c2cccc(-c3cnn(-c4ccnnc4)c3)n2)nc1
Numeric readout: 1.23

Lab book: chromatographic logP of Cn1cc(-n2cc(-c3cccc(-c4ncccn4)n3)cn2)cn1 noted as 1.37

Lab book: chromatographic logP of c1cnc(-c2cccc(-c3cnn(-c4cnsc4)c3)n2)nc1 noted as 1.65

Lab book: chromatographic logP of c1cnc(-c2cccc(-c3cnc(-c4ccnnc4)s3)n2)nc1 noted as 1.37

Lab book: chromatographic logP of c1cnc(-c2cccc(-c3cnc(-c4cnsc4)s3)n2)nc1 noted as 1.91

----------
- Assay overview: logP by HPLC-MS (HCOOH or neutral)
- Assay conditions: neutral, logP (neutral), HPLC-MS
Recorded metric: chromatographic logP
Lab note: write the figure by itself, no unit.

Lab book: chromatographic logP of c1cnc(-c2cccc(-c3cnc(-c4ccnnc4)s3)n2)nc1 noted as 1.4
